Hey, just so you know, these numbers are from patent US9796716B2.

Tested on: Splenocytes (B cell proliferation stimulated with anti-IgM F(ab′)2)
Experiment: Splenic Cell Proliferation Assay
Format: cell-based
Details: Mus musculus, Splenocyte, 72 h, CD1 mouse splenocytes, 2.5 ug/ml anti-IgM F(ab′)2 for 72 h, Cell Titer-Glo; read-out: EC50 (nM), Inhibition of splenic cell proliferation
reported.property: EC50

Request: Specify reported EC50 for the compound shown: "Nc1ncnc2c1c(-c1ccc(Oc3cc(F)cc(OCc4cnc[nH]4)c3)cc1)nn2C1CCOCC1"
Result: 100 to 1000 nM

Request: Return value of EC50 for input "Cn1cncc1COc1cccc(Oc2ccc(-c3nn(C4CCOCC4)c4ncnc(N)c34)cc2)c1" , no commentary.
Result: < 100 nM

Request: Consider the compound "CC(C)Cn1cncc1COc1cc(F)cc(Oc2ccc(-c3nn(C4CCOCC4)c4ncnc(N)c34)cc2)c1" . State its measured EC50.
Result: 100 to 1000 nM

Request: Provide EC50 value for the following compound: "CC(C)n1nc(-c2ccc(Oc3cc(F)cc(OCc4cncn4C)c3)cc2)c2c(N)ncnc21"
Result: < 100 nM

Request: Assign EC50 to the following record: "Cc1ncc(COc2cc(F)cc(Oc3ccc(-c4nn(CCO)c5ncnc(N)c45)cc3)c2)s1"
Result: < 100 nM

Request: Read the entry "Cc1ncc(COc2cc(F)cc(Oc3ccc(-c4nn(CCCO)c5ncnc(N)c45)cc3)c2)cn1" and write its reported EC50.
Result: 100 to 1000 nM

Request: In one line, give reported EC50 of the entry "CC(=O)N1CCC[C@@H](n2nc(-c3ccc(Oc4cccc(OCc5ccccc5)c4)cc3)c3c(N)ncnc32)C1" .
Result: < 100 nM

Request: For the compound "Cc1ncc(COc2cc(F)cc(Oc3ccc(-c4nn(CC5(C)COC5)c5ncnc(N)c45)cc3)c2)s1" , give its reported EC50.
Result: < 100 nM

Request: Please give the documented EC50 of "N#Cc1ccccc1OCc1cccc(Oc2ccc(-c3nn(C4CCOCC4)c4ncnc(N)c34)cc2)c1"
Result: < 100 nM

Request: Could you please provide reported EC50 for "Cc1ncc(COc2cc(F)cc(Oc3ccc(-c4nn(CC(C)(C)O)c5ncnc(N)c45)cc3)c2)cn1" ? Thanks!
Result: 100 to 1000 nM

Request: Given "Cc1ncc(COc2cc(F)cc(Oc3ccc(-c4nn(C5CCOCC5)c5ncnc(N)c45)c(F)c3)c2)s1" , respond with its EC50.
Result: < 100 nM

Request: Look up EC50 of "Cn1nc(-c2ccc(Oc3cccc(OCc4ccccc4)c3)cc2)c2c(N)ncnc21" and report it.
Result: 100 to 1000 nM

Request: Read off the recorded EC50 for "[2H]C([2H])(Oc1cc(F)cc(Oc2ccc(-c3nn(C4CCOCC4)c4ncnc(N)c34)cc2)c1)c1ccc(C)nc1"
Result: < 100 nM

Request: Retrieve EC50 measured for "Cc1ncc(COc2cc(F)cc(Oc3ccc(-c4nn(C(C)(C)C)c5ncnc(N)c45)cc3)c2)s1" and print it.
Result: < 100 nM

Request: Fill in EC50 for record "Cc1ncc(COc2cc(F)cc(Oc3ccc(-c4nn(CC(C)(C)O)c5ncnc(N)c45)cc3)c2)s1"
Result: < 100 nM

###

Tested on: Splenocytes (B cell proliferation stimulated with anti-IgM F(ab′)2)
Experiment: Splenic Cell Proliferation Assay
Type: cell-based
Conditions: Mus musculus, Splenocyte, 72 h, CD1 mouse splenocytes, 2.5 ug/ml anti-IgM F(ab′)2 for 72 h, Cell Titer-Glo; read-out: EC50 (nM), Inhibition of splenic cell proliferation
So I've got a bunch of compounds here, and I need their EC50 values.

Request: Respond only with EC50 recorded for "Cc1ccc(COc2cc(F)cc(Oc3ccc(-c4nn(CC(C)(C)O)c5ncnc(N)c45)cc3)c2)cn1"
Result: 100 to 1000 nM

Request: Given "Cc1ncc(COc2cccc(Oc3ccc(-c4nn(C5CCOCC5)c5ncnc(N)c45)cc3F)c2)s1" , respond with its EC50.
Result: < 100 nM

Request: Give the reported value of EC50 for this record: "Cn1nc(-c2ccc(Oc3cccc(COc4ccccc4C#N)c3)cc2)c2c(N)ncnc21"
Result: 100 to 1000 nM

Request: For "C=CC(=O)N1CCC[C@@H](n2nc(-c3ccc(Oc4cccc(OCc5ccccc5)c4)cc3)c3c(N)ncnc32)C1" , write its EC50.
Result: < 100 nM

Request: Hello, please tell me recorded EC50 for this one: "Nc1ncnc2c1c(-c1ccc(Oc3cccc(OCc4cncs4)c3)cc1)nn2C1CCNCC1"
Result: 100 to 1000 nM
